This section presents compounds with their documented melting point values.

[ask] Tell us which melting point value is on record for CNCC1C2CN(C(=O)C(O)(c3ccc(C)cc3)C(F)(F)F)CC12 (stereo not drawn)
[reply] 191 to 194 °C

[ask] Return melting point (reported value) for this compound: CNCC1C2CN(C(=O)C(O)(c3ccccc3)C3CCCCC3)CC12 (stereo not drawn)
[reply] 140 to 142 °C

[ask] Return value of melting point for input CNCC1C2CN(C(=O)C(O)(c3ccccc3)C(F)(F)F)CC12 (stereo not drawn) , no commentary.
[reply] 110 to 113 °C

[ask] Answer with the recorded melting point of CNC1C2CN(C(=O)C(O)(c3ccccc3)C(F)(F)F)CC21 (stereo not drawn) only.
[reply] 179.7 to 182 °C

[ask] State, in one line, measured melting point of CN(C)C1C2CN(C(=O)C(O)(c3ccccc3)C3CCCCC3)CC21 (stereo not drawn)
[reply] 71.3 to 72.7 °C

[ask] Determine its reported melting point: CNC1C2CN(C(=O)C(O)(c3ccc(C)cc3)C(F)(F)F)CC21 (stereo not drawn)
[reply] 178 to 179.4 °C
